Assay: pH solubility
Type: physicochemical
Settings: aqueous solution, pH 6.5, aqueous buffer, thermodynamic from solid; read-out: Solubility Concentration
EXPERIMENTAL READOUT: solubility at 24 h

Some solved entries appear below for comparison.
Input: Requested read-out: solubility at 24 h. Entry: `COc1cc2c(NC3CCS(=O)(=O)CC3)nc(N3CCC(F)(F)CC3)nc2cc1OCCCN1CCCC1`
Output: 6050 µg/mL

Input: What does the record list as solubility at 24 h for `COc1cc2c(NC3COC3)nc(N3CCC(F)(F)CC3)nc2cc1OCCCN1CCCC1` ?
Output: 3180 µg/mL

Input: What value of measured solubility at 24 h is listed for `COc1cc2c(NC3CCOCC3)nc(N3CCC(F)(F)CC3)nc2cc1OCCCN1CCCC1` ?
Output: 27500 µg/mL

# input for lookup
Input: Query (molecule): COc1cc2c(NC3CCN(C(C)C)CC3)nc(N3CCC(F)(F)CC3)nc2cc1OCCCN1CCCC1 [Compound 400, reference compound] ; field requested: solubility at 24 h
Output: 7510 µg/mL

====

Assay: PAMPA permeability
Conditions: PAMPA, Permeability, Pe, 20 μM donor in PBS/MeOH 90:10; 5 hours at RT
Catalogue of Papp at 5 h, 20 μM values
Quick note: give the figure in ×10⁻⁶ cm/s, leave out the unit.

Input: Item under review: COc1cc2c(Nc3ccncc3)nc(-n3ccnc3)nc2cc1OCCCN1CCCC1 [Compound 130] . Reported Papp at 5 h, 20 μM?
Output: 0.0129

Input: Which Papp at 5 h, 20 μM is listed for COc1cc2c(N[C@H]3CCCNC3)nc(N3CCCC3)nc2cc1OCCCN1CCCC1 [Compound 158] ?
Output: 0.00453

Input: Entry COc1cc2c(NC3CCS(=O)(=O)CC3)nc(N3CCC(F)(F)CC3)nc2cc1C#CCN1CCCC1 [Compound 248] has what Papp at 5 h, 20 μM?
Output: 1.32

Input: Quick one: Papp at 5 h, 20 μM of COc1cc2c(NC3CCS(=O)(=O)CC3)nc(N3CCCN(C)CC3)nc2cc1OCCCN1CCCC1 [Compound 110] ?
Output: 0.00676

====

Experiment: pH solubility
Type: physicochemical
Settings: aqueous solution, pH 4, aqueous buffer, thermodynamic from solid; read-out: Solubility Concentration
// reported solubility at 24 h per item
Number only, in mg/mL; omit the unit.

Some solved cases for reference:
Input: State the recorded solubility at 24 h for this entry: `COc1cc2c(NC3CCS(=O)(=O)CC3)nc(N3CCC(F)(F)CC3)nc2cc1OCCCN1CCCC1`
Output: 11.6

Input: Given the molecule COc1cc2c(NC3CCN(C(C)C)CC3)nc(N3CCC(F)(F)CC3)nc2cc1OCCCN1CCCC1 [Compound 400, reference compound] , what is its reported solubility at 24 h?
Output: 13.2

Read the next record carefully.
Input: Reported solubility at 24 h for `COc1cc2c(NC3COC3)nc(N3CCC(F)(F)CC3)nc2cc1OCCCN1CCCC1` : what is it?
Output: 4.45

====

System: C57BL/6 mice with DSS colitis
Test: DSS colitis in C57BL/6 mice
Assay type: in vivo
Conditions: 25 mg/kg PO daily; day twelve
EXPERIMENTAL READOUT: DSS Efficacy

Input: Name the recorded DSS Efficacy for COc1cc2c(NC3CCOCC3)nc(-c3ccc(C)o3)nc2cc1OCCCN1CCCC1 [Compound 180] .
Output: ++

Input: Entry COc1cc2c(NCC#N)nc(N3CCC(F)(F)CC3)nc2cc1OCCCN1CCCC1 [Compound 49] : reported DSS Efficacy = ?
Output: −

Input: Field request: DSS Efficacy | item: COc1cc2c(NC3CCS(=O)(=O)CC3)nc(N3CCCC3)nc2cc1C#CCN1CCCC1 [Compound 254]
Output: +

Input: # query: DSS Efficacy of entry COc1cc2c(N[C@@H]3CCCOC3)nc(N3CCC(F)(F)CC3)nc2cc1OCCCN1CCCC1 [Compound 12]
Output: ++

Input: Recorded DSS Efficacy of COc1cc2c(NCN3CCOCC3)nc(N3CCC(F)(F)CC3)nc2cc1OCCCN1CCCC1 [Compound 17] , please.
Output: +

Input: Which DSS Efficacy value is on record for COc1cc2c(NC3CCCOC3)nc(N3CCC(F)(F)CC3)nc2cc1OCCCN1CCCC1 (stereo not shown) [Compound 14] ?
Output: ++

Next:
Input: Recorded DSS Efficacy of COc1cc2c(NCN3CCNCC3)nc(-c3cnc(C)s3)nc2cc1OCCCN1CCCC1 [Compound 213] , please.
Output: +

Input: Which DSS Efficacy value belongs to COc1cc2c(NCO)nc(N3CCC(F)(F)CC3)nc2cc1OCCCN1CCCC1 [Compound 61] ?
Output: +

Input: Please give the measured DSS Efficacy for this molecule: COc1cc2c(NC3CCS(=O)(=O)CC3)nc(C3CC3)nc2cc1OCCCN1CCCC1 [Compound 99]
Output: ++

Input: Quick check: DSS Efficacy of COc1cc2c(Nc3ccncc3)nc(N3CCC(F)(F)CC3)nc2cc1OCCCN1CCCC1 [Compound 7] ?
Output: −

Input: DSS Efficacy lookup needed for COc1cc2c(NC3CCCS(=O)(=O)C3)nc(N3CCC3)nc2cc1OCCCN(C)C (stereo not shown) [Compound 137] , thanks.
Output: +

Input: # DSS Efficacy lookup, item COc1cc2c(NC3CCCS(=O)(=O)C3)nc(N3CCC(F)(F)CC3)nc2cc1OCCCN1CCCC1 (stereo not shown) [Compound 15]
Output: +

Input: Quick check: DSS Efficacy of COc1cc2c(NC3CCS(=O)(=O)CC3)nc(N3CCC3)nc2cc1OCCCN1CCCC1 [Compound 81] ?
Output: ++

Input: Which DSS Efficacy is listed for COc1cc2c(N[C@]3(N(C)C)C[C@@H](C)O[C@@H](C)C3)nc(N3CCC(F)(F)CC3)nc2cc1OCCCN1CCCC1 [Compound 25] ?
Output: +

Input: Give its DSS Efficacy value. Item: COc1cc2c(NCCCOC(C)C)nc(N3CCC(F)(F)CC3)nc2cc1OCCCN1CCCC1 [Compound 21]
Output: +

Input: If you can, please state the reported DSS Efficacy value of COc1cc2c(NC3CCOCC3)nc(N3CCCCC3)nc2cc1OCCCN1CCCC1 [Compound 173] .
Output: ++
